Listing of recorded IC50 by entry.
- System Name: BRD4-FL: Full length BRD4 (Homo sapiens, UniProt O60885)
- Construct: BRD4-FL: Full length BRD4
- Test Description: Bromodomain binding assay (Example 6), BRD4-FL
Where a name gives a salt, the structure may show the parent alone.
Please reply with the bare figure in nM and do not write the unit itself.

Below, 3 compounds whose answers are already recorded.
{"Compound": "COc1cc2c(cc1-c1c(C)noc1C)ncc1nc(C3CCOCC3)n([C@H](C)COC(F)F)c12 [2(g)]", "System Name": "BRD4-FL: Full length BRD4 (Homo sapiens, UniProt O60885)", "IC50 [nM]": 14}
{"Compound": "COc1cc2c(cc1-c1c(C)noc1C)ncc1nc(C3CC3)n([C@H](C)COC(F)F)c12.Cl [2(l), hydrochloride]", "System Name": "BRD4-FL: Full length BRD4 (Homo sapiens, UniProt O60885)", "IC50 [nM]": 33}
{"Compound": "COc1cc2c(cc1-c1c(C)noc1C)ncc1nc(C3CCC(F)(F)CC3)n([C@H](C)COC(F)F)c12 [2(h)]", "System Name": "BRD4-FL: Full length BRD4 (Homo sapiens, UniProt O60885)", "IC50 [nM]": 21}

Task: Which IC50 value belongs to COc1cc2c(cc1-c1c(C)noc1C)ncc1nc(C3CCOCC3)n([C@@H](C)COC(F)F)c12 [2(a)] ?
Output: 40

Task: Consider the compound COc1cc2c(cc1-c1c(C)noc1C)ncc1nc(CN(C)C)n([C@H](C)COC(F)F)c12 [3(b)] and give its measured IC50.
Output: 32

Task: // IC50 lookup, key: COc1cc2c(cc1-c1c(C)noc1C)ncc1nc(CN3CCOCC3)n([C@H](C)COC(F)F)c12 [3(a), trihydrochloride]
Output: 10
